This collection of values is drawn from patent US10537521B2.

# Assay notes: Example 1: multiple-dose randomized 3-way crossover PK study of two IV tramadol regimens vs 100 mg oral q6h
# Test settings: human, plasma, iv, 50 mg, plasma concentration, Mean, 50 mg IV Dose (h 0, 2, 4, then q4h to h 44); Time […]
Where a name gives a salt, the structure may show the parent alone.
Quantity kind: concentration at 48 h (ng/mL)
Numbers only, in ng/mL.

IN: What value of measured concentration at 48 h is listed for COc1cccc([C@]2(O)CCCC[C@H]2CN(C)C)c1 (racemic) [Tramadol, hydrochloride] ?
OUT: 434

---

# Assay notes: Example 1: multiple-dose randomized 3-way crossover PK study of two IV tramadol regimens vs 100 mg oral q6h
# Test settings: human, plasma, po, 100 mg, Cmax(0-6), 100 mg oral q6h to h 42; first dose, mean
Counter-ions that a name gives are not always drawn.
Quantity kind: Cmax (ng/mL)
One number for each entry, in ng/mL.

IN: What value of measured Cmax is listed for COc1cccc([C@]2(O)CCCC[C@H]2CN(C)C)c1 (racemic) [Tramadol, hydrochloride] ?
OUT: 377

---

# Assay notes: Example 1: multiple-dose randomized 3-way crossover PK study of two IV tramadol regimens vs 100 mg oral q6h
# Test settings: human, plasma, iv, 50 mg, plasma concentration, Mean, 50 mg IV Dose (h 0, 2, 4, then q4h to h 44); Time […]
Where a name gives a salt, the structure may show the parent alone.
Quantity kind: concentration at 16 h

IN: What value of measured concentration at 16 h is listed for COc1cccc([C@]2(O)CCCC[C@H]2CN(C)C)c1 (racemic) [Tramadol, hydrochloride] ?
OUT: 388 ng/mL

---

# Assay notes: Example 1: multiple-dose randomized 3-way crossover PK study of two IV tramadol regimens vs 100 mg oral q6h
# Test settings: human, plasma, iv, 75 mg, AUCtau 1, 75 mg IV regimen (h 0, 3, 6, then q6h to h 42); first dosing interval; mean
Counter-ions that a name gives are not always drawn.
Quantity kind: AUC (ng·h/mL)
One number for each entry, in ng·h/mL.

IN: What value of measured AUC is listed for COc1cccc([C@]2(O)CCCC[C@H]2CN(C)C)c1 (racemic) [Tramadol, hydrochloride] ?
OUT: 1250

---

# Assay notes: Example 1: multiple-dose randomized 3-way crossover PK study of two IV tramadol regimens vs 100 mg oral q6h
# Test settings: human, plasma, iv, 50 mg, plasma concentration, Mean, 50 mg IV Dose (h 0, 2, 4, then q4h to h 44); Time 0.500 hr
Counter-ions that a name gives are not always drawn.
Quantity kind: concentration at 0.5 h (ng/mL)
Answers are plain numbers, in ng/mL.

IN: What value of measured concentration at 0.5 h is listed for COc1cccc([C@]2(O)CCCC[C@H]2CN(C)C)c1 (racemic) [Tramadol, hydrochloride] ?
OUT: 261

---

# Assay notes: Example 1: multiple-dose randomized 3-way crossover PK study of two IV tramadol regimens vs 100 mg oral q6h
# Test settings: human, plasma, iv, 50 mg, plasma concentration, Mean, 50 mg IV Dose (h 0, 2, 4, then q4h to h 44); Time 40.0 hr
Structures can show the parent of a compound that is named as a salt.
Quantity kind: concentration at 40 h (ng/mL)
Answers are plain numbers, in ng/mL.

IN: What value of measured concentration at 40 h is listed for COc1cccc([C@]2(O)CCCC[C@H]2CN(C)C)c1 (racemic) [Tramadol, hydrochloride] ?
OUT: 424

---

# Assay notes: Example 1: multiple-dose randomized 3-way crossover PK study of two IV tramadol regimens vs 100 mg oral q6h
# Test settings: human, plasma, iv, 75 mg, AUC24-48, 75 mg IV regimen (h 0, 3, 6, then q6h to h 42); plasma, mean
Counter-ions that a name gives are not always drawn.
Quantity kind: AUC (ng·h/mL)
Answers are plain numbers, in ng·h/mL.

IN: What value of measured AUC is listed for COc1cccc([C@]2(O)CCCC[C@H]2CN(C)C)c1 (racemic) [Tramadol, hydrochloride] ?
OUT: 9930

---

# Assay notes: Example 1: multiple-dose randomized 3-way crossover PK study of two IV tramadol regimens vs 100 mg oral q6h
# Test settings: human, plasma, iv, 50 mg, AUC0-24, 50 mg IV regimen (h 0, 2, 4, then q4h to h 44); plasma, mean
Structures can show the parent of a compound that is named as a salt.
Quantity kind: AUC(0-t) (ng·h/mL)
Give bare numbers, in ng·h/mL.

IN: What value of measured AUC(0-t) is listed for COc1cccc([C@]2(O)CCCC[C@H]2CN(C)C)c1 (racemic) [Tramadol, hydrochloride] ?
OUT: 9520

---

# Assay notes: Example 1: multiple-dose randomized 3-way crossover PK study of two IV tramadol regimens vs 100 mg oral q6h
# Test settings: human, plasma, iv, 50 mg, Cmax, 50 mg IV regimen (h 0, 2, 4, then q4h to h 44); plasma, mean
Where a name gives a salt, the structure may show the parent alone.
Quantity kind: Cmax (ng/mL)
Numbers only, in ng/mL.

IN: What value of measured Cmax is listed for COc1cccc([C@]2(O)CCCC[C@H]2CN(C)C)c1 (racemic) [Tramadol, hydrochloride] ?
OUT: 736

---

# Assay notes: Example 1: multiple-dose randomized 3-way crossover PK study of two IV tramadol regimens vs 100 mg oral q6h
# Test settings: human, plasma, po, 100 mg, Cmax(42-48), 100 mg oral q6h to h 42; steady-state, mean
Where a name gives a salt, the structure may show the parent alone.
Quantity kind: Cmax (ng/mL)
Give bare numbers, in ng/mL.

IN: What value of measured Cmax is listed for COc1cccc([C@]2(O)CCCC[C@H]2CN(C)C)c1 (racemic) [Tramadol, hydrochloride] ?
OUT: 701
